Molecular target: UniProtKB Q9H228
Sequence (Q9H228 whole entry): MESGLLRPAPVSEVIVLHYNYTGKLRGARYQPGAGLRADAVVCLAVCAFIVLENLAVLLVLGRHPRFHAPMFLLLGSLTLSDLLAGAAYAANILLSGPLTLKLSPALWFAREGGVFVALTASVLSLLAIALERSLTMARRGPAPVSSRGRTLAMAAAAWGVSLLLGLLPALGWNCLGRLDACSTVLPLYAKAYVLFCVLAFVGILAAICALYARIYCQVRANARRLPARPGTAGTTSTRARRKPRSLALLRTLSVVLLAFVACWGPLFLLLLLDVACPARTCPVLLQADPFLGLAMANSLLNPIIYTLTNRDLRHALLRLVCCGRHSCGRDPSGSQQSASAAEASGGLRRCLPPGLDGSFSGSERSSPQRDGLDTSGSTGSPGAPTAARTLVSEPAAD
Assay: hS1P5R GTPγS binding assay (Assay 4)
pEC50: −log10 of the molar value.
Below is a list of entries, each paired with its recorded pEC50 value.
readout.type: pEC50

                                    compound  readout_type  experimental_value
 0  CC(C)Oc1ccc(-c2nnc(-c3cc(F)c(OC[C@@H](N)COP(=O)(O)O)cc3Cl)s2)cc1Br         pEC50              ≥ 8.00
 1  CC(C)Oc1c(Cl)cc(-c2nnc(-c3cc(F)c(OC[C@H](N)CO)cc3Cl)s2)cc1Cl         pEC50        5.55 to 6.60
 2  Cc1nc(-c2nnc(-c3cc(F)c(OC[C@H](N)[C@@H](C)O)cc3Cl)s2)ccc1NC(C)C         pEC50        7.30 to 8.00
 3  CC(C)Oc1ccc(-c2nnc(-c3cc(F)c(OC[C@@H](N)[C@@H](C)O)cc3Cl)s2)cc1Cl         pEC50        7.30 to 8.00
 4  CC(C)Nc1ncc(-c2nnc(-c3cc(F)c(OC[C@H](N)CO)cc3Cl)s2)cc1Cl         pEC50        5.55 to 6.60
 5  CC(C)Nc1ccc(-c2nnc(-c3cc(F)c(OC[C@@H](N)CO)cc3Cl)s2)cn1         pEC50        5.55 to 6.60
 6  CC(C)Nc1ccc(-c2nnc(-c3cc(F)c(OC[C@H](N)CO)cc3Cl)s2)cn1         pEC50        5.55 to 6.60
 7  CC(C)Oc1ccc(-c2nnc(-c3cc(F)c(OC[C@H](N)COP(=O)(O)O)cc3Cl)s2)cc1C#N         pEC50              ≥ 8.00
 8  CC(C)Nc1ccc(-c2nnc(-c3cc(F)c(OC[C@H](N)[C@H](C)O)cc3Cl)s2)cn1         pEC50              < 5.00
 9  CC(C)Oc1ccc(-c2nnc(-c3cc(F)c(OC[C@@H](N)COP(=O)(O)O)cc3Cl)s2)cc1Cl         pEC50        7.30 to 8.00
10  CC(C)Oc1ccc(-c2nnc(-c3cc(F)c(OC[C@H](N)CO)cc3Cl)s2)nc1Cl         pEC50        6.60 to 7.30
11  Cc1nc(-c2nnc(-c3cc(F)c(OC[C@H](N)[C@H](C)O)cc3Cl)s2)ccc1NC(C)C         pEC50        6.60 to 7.30
12  N[C@H](CO)COc1cc(Cl)c(-c2nnc(-c3cc(Cl)cc(Br)c3)s2)cc1F         pEC50        5.55 to 6.60
13  CC(C)Nc1ccc(-c2nnc(-c3cc(F)c(OC[C@@H](N)[C@H](C)O)cc3Cl)s2)cn1         pEC50        5.55 to 6.60
14  CC(C)Oc1ccc(-c2nnc(-c3cc(F)c(OC[C@H](N)CO)c(Cl)c3)s2)cc1Cl         pEC50        7.30 to 8.00
15  Cc1cc(-c2nnc(-c3cc(F)c(OC[C@H](N)[C@@H](C)OP(=O)(O)O)cc3Cl)s2)cc(NC(C)C)n1         pEC50        7.30 to 8.00
16  CC(C)Oc1ncc(-c2nnc(-c3cc(F)c(OCC(N)CO)cc3Cl)s2)cc1Cl (stereo not shown)         pEC50        5.55 to 6.60
17  CC(C)Oc1ccc(-c2nnc(-c3cc(Cl)c(OC[C@H](N)CO)c(Cl)c3)s2)cc1Cl         pEC50        7.30 to 8.00
18  Cc1cc(-c2nnc(-c3cc(F)c(OC[C@H](N)[C@@H](C)O)cc3Cl)s2)ccc1OC(C)C         pEC50        7.30 to 8.00
19  CC(C)Oc1ccc(-c2nnc(-c3cc(F)c(OC[C@H](N)[C@H](C)OP(=O)(O)O)cc3Cl)s2)cc1C#N         pEC50              ≥ 8.00
20  CC(C)N(C)c1cc(-c2nnc(-c3cc(F)c(OC[C@H](N)CO)cc3Cl)s2)cc(Cl)n1         pEC50        6.60 to 7.30
21  Cc1cc(-c2nnc(-c3cc(F)c(OC[C@H](N)[C@H](C)O)cc3Cl)s2)cc(NC(C)C)n1         pEC50        7.30 to 8.00
22  CC(C)Oc1ccc(-c2nnc(-c3cc(F)c(OC[C@H](N)[C@@H](C)O)cc3Cl)s2)cc1C#N         pEC50        7.30 to 8.00
23  CC(C)Oc1ccc(-c2nnc(-c3cc(F)c(OC[C@@H](N)[C@H](C)OP(=O)(O)O)cc3Cl)s2)cc1Cl         pEC50              ≥ 8.00
24  CC(C)Nc1cc(-c2nnc(-c3cc(F)c(OC[C@H](N)[C@H](C)O)cc3Cl)s2)ccn1         pEC50        5.55 to 6.60
25  CC(C)Oc1ccc(-c2nnc(-c3cc(F)c(OC[C@H](N)CO)cc3Cl)s2)cc1C#N         pEC50        7.30 to 8.00
26  CC(C)Nc1ccc(-c2nnc(-c3cc(F)c(OC[C@H](N)[C@@H](C)O)cc3Cl)s2)cn1         pEC50        5.55 to 6.60
27  CC(C)Oc1ncc(-c2nnc(-c3cc(F)c(OC[C@H](N)CO)cc3Cl)s2)cc1Cl         pEC50        5.55 to 6.60
28  N[C@H](CO)COc1cc(Cl)c(-c2nnc(-c3cccc(Cl)c3)s2)cc1F         pEC50        5.55 to 6.60
29  Cc1cc(NC(C)C)cc(-c2nnc(-c3cc(F)c(OC[C@H](N)[C@H](C)O)cc3Cl)s2)n1         pEC50        6.60 to 7.30
30  Cc1cc(-c2nnc(-c3cc(F)c(OC[C@@H](N)[C@@H](C)O)cc3Cl)s2)cnc1NC(C)C         pEC50        5.55 to 6.60

---

Below is a list of entries, each paired with its recorded EC50 value.
Target: S1P3 (Homo sapiens, UniProt Q99500)
Construct: host or cells: HEK293 (transient transfection)
Sequence (P32121 whole entry): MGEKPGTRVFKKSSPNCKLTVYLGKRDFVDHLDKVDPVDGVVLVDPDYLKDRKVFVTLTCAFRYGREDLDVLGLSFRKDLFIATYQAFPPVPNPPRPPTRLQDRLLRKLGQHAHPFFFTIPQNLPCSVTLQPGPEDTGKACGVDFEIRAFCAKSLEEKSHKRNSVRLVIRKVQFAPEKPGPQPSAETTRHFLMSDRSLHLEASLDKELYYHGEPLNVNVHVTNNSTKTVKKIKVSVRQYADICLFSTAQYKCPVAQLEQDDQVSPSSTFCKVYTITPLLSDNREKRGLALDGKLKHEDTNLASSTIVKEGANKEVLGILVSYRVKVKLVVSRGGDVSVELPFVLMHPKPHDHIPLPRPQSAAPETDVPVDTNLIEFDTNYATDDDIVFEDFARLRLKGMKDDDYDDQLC
Sequence (Q99500 whole entry): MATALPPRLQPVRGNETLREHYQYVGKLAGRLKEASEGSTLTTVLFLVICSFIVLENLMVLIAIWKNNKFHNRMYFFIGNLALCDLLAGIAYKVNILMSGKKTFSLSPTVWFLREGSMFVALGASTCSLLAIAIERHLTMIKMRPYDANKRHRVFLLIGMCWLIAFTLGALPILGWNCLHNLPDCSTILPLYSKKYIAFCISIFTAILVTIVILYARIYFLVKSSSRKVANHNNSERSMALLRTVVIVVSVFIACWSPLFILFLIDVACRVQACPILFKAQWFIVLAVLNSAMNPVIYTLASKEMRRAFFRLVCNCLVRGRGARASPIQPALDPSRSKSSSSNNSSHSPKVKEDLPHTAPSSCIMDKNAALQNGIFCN
Assay: S1P3 Tango β-arrestin recruitment assay in HEK293 cells (Assay 5)
Type: cell-based
Conditions: read-out: Assay 5 EC50
readout.type: EC50

>>> print(df.to_string())
                               entry_smiles  readout_type  experimental_value
0  CC(C)Oc1ccc(-c2nnc(-c3cc(F)c(OC[C@H](N)[C@H](C)O)cc3Cl)s2)cc1C#N          EC50             > 10 µM
1  CC(C)Oc1ccc(-c2nnc(-c3cc(F)c(OC[C@@H](N)[C@H](C)O)cc3Cl)s2)cc1C#N          EC50           ≤ 0.25 µM
2  Cc1nc(-c2nnc(-c3cc(F)c(OC[C@H](N)[C@@H](C)O)cc3Cl)s2)ccc1NC(C)C          EC50           > 0.25 µM
3  CC(C)Nc1ccc(-c2nnc(-c3cc(F)c(OC[C@H](N)CO)cc3Cl)s2)cn1          EC50             > 10 µM
4  CC(C)Oc1ccc(-c2nnc(-c3cc(F)c(OC[C@@H](N)CO)cc3Cl)s2)cc1Br          EC50           ≤ 0.25 µM
5  CC(C)Oc1ccc(-c2nnc(-c3cc(F)c(OC[C@H](N)CO)cc3Cl)s2)cc1C(N)=O          EC50             > 10 µM
6  N[C@H](CO)COc1cc(Cl)c(-c2nnc(-c3cc(Cl)cc(Cl)c3)s2)cc1F          EC50             > 10 µM
7  CC(C)Nc1ncc(-c2nnc(-c3cc(F)c(OC[C@@H](N)CO)cc3Cl)s2)cn1          EC50           ≤ 0.25 µM

---

Biological target: S1P1 (Homo sapiens, UniProt P21453)
Construct: host or cells: U2OS
Sequence (P32121 whole entry): as the sequence (P32121 whole entry) above
Sequence (P21453 whole entry): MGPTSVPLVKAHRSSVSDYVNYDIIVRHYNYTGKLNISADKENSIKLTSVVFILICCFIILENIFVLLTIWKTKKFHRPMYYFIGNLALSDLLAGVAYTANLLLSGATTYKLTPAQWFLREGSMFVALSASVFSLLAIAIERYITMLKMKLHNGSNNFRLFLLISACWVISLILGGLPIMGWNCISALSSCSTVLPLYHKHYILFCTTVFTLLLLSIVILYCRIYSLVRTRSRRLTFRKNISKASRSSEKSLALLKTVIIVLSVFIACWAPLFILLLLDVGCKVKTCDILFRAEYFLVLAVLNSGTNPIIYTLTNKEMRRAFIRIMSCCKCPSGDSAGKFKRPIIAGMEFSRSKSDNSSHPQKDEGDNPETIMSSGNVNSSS
Assay: Tango β-arrestin recruitment assay in U2OS cells (Assay 2b)
Assay type: cell-based
Settings: read-out: Assay 2b EC50
readout.type: EC50

>>> df
                                    molecule  experimental_value
 0  CC(C)Oc1ccc(-c2nnc(-c3cc(F)c(OCC(N)CO)cc3Cl)s2)cn1 (stereo not shown) [Entry 19]             ≤ 10 nM
 1  Cc1cc(-c2nnc(-c3cc(F)c(OC[C@H](N)[C@@H](C)O)cc3Cl)s2)cnc1NC(C)C [Entry 65]         10 to 50 nM
 2  CC(C)Nc1ccc(-c2nnc(-c3cc(F)c(OC[C@@H](N)CO)cc3Cl)s2)cn1 [Entry 77]             ≤ 10 nM
 3  CC(C)N(C)c1cc(-c2nnc(-c3cc(F)c(OC[C@@H](N)CO)cc3Cl)s2)cc(Cl)n1 [Entry 31]             ≤ 10 nM
 4  CC(C)Oc1cc(Br)cc(-c2nnc(-c3cc(F)c(OC[C@H](N)CO)cc3Cl)s2)c1 [Entry 27]      250 to 2800 nM
 5  CC(C)Nc1ncc(-c2nnc(-c3cc(F)c(OC[C@H](N)CO)cc3Cl)s2)cn1 [Entry 89]         10 to 50 nM
 6  CC(C)N(C)c1cc(-c2nnc(-c3cc(F)c(OCC(N)CO)cc3Cl)s2)ccn1 (stereo not shown) [Entry 41]             ≤ 10 nM
 7  CC(C)Nc1ncc(-c2nnc(-c3cc(F)c(OC[C@H](N)[C@@H](C)O)cc3Cl)s2)cc1Cl [Entry 48]             ≤ 10 nM
 8  CC(C)Oc1c(Cl)cc(-c2nnc(-c3cc(F)c(OC[C@H](N)CO)cc3Cl)s2)cc1Cl [Entry 26]      250 to 2800 nM
 9  CC(C)Oc1ccc(-c2nnc(-c3cc(F)c(OC[C@@H](N)[C@H](C)O)cc3Cl)s2)cc1C#N [Entry 55]             ≤ 10 nM
10  CCCOc1ccc(-c2nnc(-c3cc(F)c(OC[C@H](N)CO)cc3Cl)s2)cc1Cl [Entry 17]        50 to 250 nM
11  N[C@H](CO)COc1cc(Cl)c(-c2nnc(-c3cc(Br)cc(Br)c3)s2)cc1F [Entry 30]      250 to 2800 nM
12  Cc1cc(-c2nnc(-c3cc(F)c(OC[C@H](N)[C@@H](C)O)cc3Cl)s2)cc(NC(C)C)n1 [Entry 62]             ≤ 10 nM
13  Cc1cc(-c2nnc(-c3cc(F)c(OC[C@@H](N)[C@H](C)O)cc3Cl)s2)cnc1NC(C)C [Entry 96]             ≤ 10 nM
14  CC(C)Oc1ccc(-c2nnc(-c3cc(F)c(OC[C@H](N)[C@@H](C)OP(=O)(O)O)cc3Cl)s2)cc1Cl [Entry 51]             ≤ 10 nM
15  CC(C)Oc1ccc(-c2nnc(-c3cc(F)c(OC[C@H](N)[C@@H](C)O)cc3Cl)s2)cc1C#N [Entry 82]             ≤ 10 nM
